System: UACC-62 melanoma
Assay: NCI tumour cell line growth inhibition, 48 h; in the data active = GI50 below about 0.43 µM; inactive = the rest
// classify into Y for active, N for inactive

stdin: Dear colleague, could you share the recorded outcome for COc1cc2c(Oc3ccc4[nH]c(C)cc4c3F)ncnc2cc1OCCCN1CCCC1 when you have a moment?
stdout: N

stdin: Here is the next molecule: COc1cc(C(=O)/C=C/c2c(-c3cccs3)nc3sccn23)cc(OC)c1OC
stdout: N

stdin: Here is the next molecule: COC1=C(C)C(=O)N2[C@@H]1[C@H](c1ccccc1)OC21C=CC(=O)C=C1
stdout: N

stdin: Here is the next molecule: Cc1cc2c(cc1O)[nH]c1cc3c(cc12)C=CC(C)(C)O3
stdout: N

stdin: Here is the next molecule: Cn1c([N+](=O)[O-])cnc1/C=C1\Oc2ccc(Br)cc2C1=O
stdout: N

stdin: Here is the next molecule: CN(C)CCCNc1nc2ccccc2c2c(=O)c3cc(F)ccc3sc12
stdout: N

stdin: Here is the next molecule: COc1cc(C2CC(c3ccc(SC)cc3)=NN2C(C)=O)cc(OC)c1OC (stereo unspecified)
stdout: N

stdin: Here is the next molecule: O=C(c1ccc(Oc2ccccc2)cc1Cl)c1c[nH]c2ncnc(N[C@@H]3CC[C@@H](CO)OC3)c12
stdout: Y

stdin: Here is the next molecule: CC(c1ccccc1)N1C(=O)CSC1=S (stereo unspecified)
stdout: Y

stdin: Here is the next molecule: CC(=O)c1ccc(Nc2cc(-n3nnc4ccccc43)nc3ccccc23)cc1
stdout: N

stdin: Here is the next molecule: COc1cc(C=C2c3ccccc3C(=O)c3ccccc32)ccc1OCCCCOc1cc2c(cc1OC)C(=O)N1CCCC1C=N2 (stereo unspecified)
stdout: Y

----------
Can you tell me TGI for the items I'm about to list?
System: HCT-116 colon
Assay: NCI tumour cell line growth inhibition, 48 h

stdin: TGI of COc1ccc(C(c2ccc(OC)cc2)N2C(=O)CCC2C(=O)O)cc1 (stereo unspecified) on HCT-116 colon?
stdout: > 100 µM

stdin: Here is the next molecule: O=C(CCC(=O)Nc1ccc(Cl)c(Cl)c1)CC(=O)c1ccc(Cl)cc1
stdout: > 100 µM

stdin: Here is the next molecule: COc1ccc(NC2C(=O)C3(C)CCC2C3(C)C)cc1 (stereo unspecified)
stdout: > 100 µM

stdin: Here is the next molecule: COc1cc(C2CC(c3ccc(SC)cc3)=NN2C(C)=O)cc(OC)c1OC (stereo unspecified)
stdout: 21 µM

stdin: Here is the next molecule: CCOC(=O)[C@]12C3C=CC(C3)C1C(=O)C1OC12 (stereo partly specified)
stdout: > 100 µM

stdin: Here is the next molecule: [O-][n+]1c(-c2ccccc2)oc2ccccc21
stdout: 41.9 µM

----------
Can you tell me TGI for the items I'm about to list?
Test system: SF-295 CNS
Test: NCI tumour cell line growth inhibition, 48 h

stdin: So what's the measured TGI for this one? Clc1ccc(N=C2c3ccccc3CN2c2ccc(Cl)cc2)cc1
stdout: > 100 µM

stdin: Here is the next compound: COc1ccc(Cc2nccc3cc(OC)c(OC)cc23)cc1
stdout: > 100 µM

stdin: Here is the next compound: O=C1c2c(O)ccc(O)c2C(=O)c2c(NCCNC(=O)C(O)C(O)C(O)C(O)CO)ccc(NCCNC(=O)C(O)C(O)C(O)C(O)CO)c21 (stereo unspecified)
stdout: 0.0291 µM

stdin: Here is the next compound: [O-][n+]1c(-c2ccccc2)oc2ccccc21
stdout: 27.6 µM

stdin: Here is the next compound: NC(C/C=C/P(=O)(O)O)C(=O)O (stereo unspecified)
stdout: > 100 µM

stdin: Here is the next compound: CC1COC(c2cn[nH]c2C(N)=O)C1O (stereo unspecified)
stdout: > 100 µM

stdin: Here is the next compound: CN1CCN(CCCNN)CC1
stdout: > 100 µM

stdin: Here is the next compound: Cc1ccc(N=Nc2c(C)nn(-c3ccccc3)c2C)c(Br)c1
stdout: > 100 µM

stdin: Here is the next compound: CCOC(=O)CCC(C(=O)OCC)n1nc2ccc(Nc3c(C)[n+]([O-])c4ccc(Cl)cc4[n+]3[O-])cc2n1 (stereo unspecified)
stdout: 39.1 µM

stdin: Here is the next compound: Clc1ccc(Cc2nc3cc(Cl)c(Cl)cc3n2CC2CCCN3CCCCC23)cc1Cl (stereo unspecified)
stdout: 10.5 µM

stdin: Here is the next compound: C=CCOC1=C(OC(C)=O)C(=O)OC1C1COC(C)(C)O1 (stereo unspecified)
stdout: > 100 µM
